Give τrad for every item shown.
- test: Calculation of Eu luminescence parameters (radiative lifetime, rate constants, efficiencies)
- Format: physicochemical
- condition description: pure radiative luminescence lifetime; aqueous TRIS pH = 7.4
Answers are plain numbers, in μs.

Solved entries (count: 3):
compound	τrad, μs
O=C(NCCN(CCNC(=O)c1cccc(=O)n1O)CCOCCOCCOCCOCCN(CCNC(=O)c1cccc(=O)n1O)CCNC(=O)c1cccc(=O)n1O)c1cccc(=O)n1O.[Eu] [[Eu(H(14O4,2)-1,2HOPO)]^0]	1326
O=C(NCCN(CCNC(=O)c1cccc(=O)n1O)CCOCCOCCN(CCNC(=O)c1cccc(=O)n1O)CCNC(=O)c1cccc(=O)n1O)c1cccc(=O)n1O	1770
O=C(NCCN(CCNC(=O)c1cccc(=O)n1O)CCOCCOCCOCCOCCOCCN(CCNC(=O)c1cccc(=O)n1O)CCNC(=O)c1cccc(=O)n1O)c1cccc(=O)n1O.[Eu] [[Eu(H(17O5,2)-1,2HOPO)]^0]	1348

Okay, next one:
-- ask Please look up its τrad: `O=C(NCCN(CCNC(=O)c1cccc(=O)n1O)CCOCCOCCOCCN(CCNC(=O)c1cccc(=O)n1O)CCNC(=O)c1cccc(=O)n1O)c1cccc(=O)n1O`
-- reply 1630

====

Give λ^maxabs for every item shown.
- test: UV/visible absorption spectroscopy of Eu(III) complexes in TRIS buffer
- Assay type: physicochemical
- condition description: TRIS buffer pH = 7.4
One number for each entry, in nm.

Please state, for each entry, its recorded λ^maxabs.
1. O=C(NCCN(CCNC(=O)c1cccc(=O)n1O)CCOCCOCCN(CCNC(=O)c1cccc(=O)n1O)CCNC(=O)c1cccc(=O)n1O)c1cccc(=O)n1O
2. O=C(NCCN(CCNC(=O)c1cccc(=O)n1O)CCOCCN(CCNC(=O)c1cccc(=O)n1O)CCNC(=O)c1cccc(=O)n1O)c1cccc(=O)n1O.[Eu]
3. O=C(NCCN(CCNC(=O)c1cccc(=O)n1O)CCOCCOCCOCCN(CCNC(=O)c1cccc(=O)n1O)CCNC(=O)c1cccc(=O)n1O)c1cccc(=O)n1O
4. O=C(NCCN(CCNC(=O)c1cccc(=O)n1O)CCOCCOCCOCCOCCOCCN(CCNC(=O)c1cccc(=O)n1O)CCNC(=O)c1cccc(=O)n1O)c1cccc(=O)n1O.[Eu] [[Eu(H(17O5,2)-1,2HOPO)]^0]

-- reply
1. 336
2. 337
3. 334
4. 336

-- ask Please look up its λ^maxabs: O=C(NCCN(CCNC(=O)c1cccc(=O)n1O)CCOCCOCCOCCOCCN(CCNC(=O)c1cccc(=O)n1O)CCNC(=O)c1cccc(=O)n1O)c1cccc(=O)n1O.[Eu] [[Eu(H(14O4,2)-1,2HOPO)]^0]
-- reply 336

====

- test: Luminescence lifetimes (TRIS buffer, deuterated water, 77K) and inner sphere water number q
- condition description: inner sphere water molecules, improved Horrock's equations; first species
reported metric: q
Answers are plain numbers.

Solved entries (count: 2):
compound	q
O=C(NCCN(CCNC(=O)c1cccc(=O)n1O)CCOCCOCCOCCOCCOCCN(CCNC(=O)c1cccc(=O)n1O)CCNC(=O)c1cccc(=O)n1O)c1cccc(=O)n1O.[Eu] [[Eu(H(17O5,2)-1,2HOPO)]^0]	0.1
O=C(NCCN(CCNC(=O)c1cccc(=O)n1O)CCOCCOCCOCCN(CCNC(=O)c1cccc(=O)n1O)CCNC(=O)c1cccc(=O)n1O)c1cccc(=O)n1O [Eu(H11-3)]	0.1

Please state, for each entry, its recorded q.
1. O=C(NCCN(CCNC(=O)c1cccc(=O)n1O)CCOCCOCCN(CCNC(=O)c1cccc(=O)n1O)CCNC(=O)c1cccc(=O)n1O)c1cccc(=O)n1O [Eu(H8-2)]
2. O=C(NCCN(CCNC(=O)c1cccc(=O)n1O)CCOCCOCCOCCOCCN(CCNC(=O)c1cccc(=O)n1O)CCNC(=O)c1cccc(=O)n1O)c1cccc(=O)n1O.[Eu] [[Eu(H(14O4,2)-1,2HOPO)]^0]

-- reply
1. 0
2. 0.1

====

- test: Stability titration (pEu) by competitive batch titration using DTPA
- Type: physicochemical
- condition description: in words
reported metric: pEu value as compared to DTPA

compound	pEu value as compared to DTPA
O=C(NCCN(CCNC(=O)c1cccc(=O)n1O)CCOCCN(CCNC(=O)c1cccc(=O)n1O)CCNC(=O)c1cccc(=O)n1O)c1cccc(=O)n1O.[Eu] [Eu(H5-1)]	increased
O=C(NCCN(CCCCN(CCNC(=O)c1cccc(=O)n1O)CCNC(=O)c1cccc(=O)n1O)CCNC(=O)c1cccc(=O)n1O)c1cccc(=O)n1O [Eu(H4)]	decreased
O=C(NCCN(CCCCN(CCNC(=O)c1cccc(=O)n1O)CCNC(=O)c1cccc(=O)n1O)CCNC(=O)c1cccc(=O)n1O)c1cccc(=O)n1O [Eu(H3)]	decreased
O=C(NCCN(CCNC(=O)c1cccc(=O)n1O)CCOCCOCCOCCN(CCNC(=O)c1cccc(=O)n1O)CCNC(=O)c1cccc(=O)n1O)c1cccc(=O)n1O [Eu(H11-3)]	increased

-- ask Please look up its pEu value as compared to DTPA: O=C(NCCN(CCNC(=O)c1cccc(=O)n1O)CCOCCOCCN(CCNC(=O)c1cccc(=O)n1O)CCNC(=O)c1cccc(=O)n1O)c1cccc(=O)n1O [Eu(H8-2)]
-- reply increased

====

- test: Luminescence quantum yield, emission and brightness in aqueous 0.1 M TRIS buffer
- Format: physicochemical
- condition description: aqueous TRIS pH = 7.4; complexes with only one species
reported metric: ϕTot
Numbers only.

Solved entries (count: 3):
compound	ϕTot
O=C(NCCN(CCNC(=O)c1cccc(=O)n1O)CCOCCOCCOCCOCCN(CCNC(=O)c1cccc(=O)n1O)CCNC(=O)c1cccc(=O)n1O)c1cccc(=O)n1O.[Eu] [[Eu(H(14O4,2)-1,2HOPO)]^0]	0.192
O=C(NCCN(CCNC(=O)c1cccc(=O)n1O)CCOCCOCCOCCOCCOCCN(CCNC(=O)c1cccc(=O)n1O)CCNC(=O)c1cccc(=O)n1O)c1cccc(=O)n1O.[Eu] [[Eu(H(17O5,2)-1,2HOPO)]^0]	0.196
O=C(NCCN(CCNC(=O)c1cccc(=O)n1O)CCOCCOCCOCCN(CCNC(=O)c1cccc(=O)n1O)CCNC(=O)c1cccc(=O)n1O)c1cccc(=O)n1O [Eu(H11-3)]	0.165

Okay, next one:
-- ask Please look up its ϕTot: O=C(NCCN(CCNC(=O)c1cccc(=O)n1O)CCOCCOCCN(CCNC(=O)c1cccc(=O)n1O)CCNC(=O)c1cccc(=O)n1O)c1cccc(=O)n1O [Eu(H8-2)]
-- reply 0.112

====

- test: Luminescence lifetimes (TRIS buffer, deuterated water, 77K) and inner sphere water number q
- condition description: deuterated solution; first component
reported metric: τ^D (μs)
Numbers only, in μs.

molecule	τ^D [μs]
O=C(NCCN(CCNC(=O)c1cccc(=O)n1O)CCOCCOCCOCCOCCOCCN(CCNC(=O)c1cccc(=O)n1O)CCNC(=O)c1cccc(=O)n1O)c1cccc(=O)n1O.[Eu] [[Eu(H(17O5,2)-1,2HOPO)]^0]	962
O=C(NCCN(CCNC(=O)c1cccc(=O)n1O)CCOCCOCCOCCOCCN(CCNC(=O)c1cccc(=O)n1O)CCNC(=O)c1cccc(=O)n1O)c1cccc(=O)n1O.[Eu] [[Eu(H(14O4,2)-1,2HOPO)]^0]	961
O=C(NCCN(CCNC(=O)c1cccc(=O)n1O)CCOCCOCCOCCN(CCNC(=O)c1cccc(=O)n1O)CCNC(=O)c1cccc(=O)n1O)c1cccc(=O)n1O	888

Okay, next one:
-- ask Please look up its τ^D: `O=C(NCCN(CCNC(=O)c1cccc(=O)n1O)CCOCCOCCN(CCNC(=O)c1cccc(=O)n1O)CCNC(=O)c1cccc(=O)n1O)c1cccc(=O)n1O`
-- reply 913

====

- test: Calculation of Eu luminescence parameters (radiative lifetime, rate constants, efficiencies)
- Assay type: physicochemical
- condition description: efficiency of metal centred luminescence
Give η^Eu for every item shown.
One number for each entry.

Solved entries (count: 3):
compound	η^Eu
O=C(NCCN(CCNC(=O)c1cccc(=O)n1O)CCOCCOCCOCCOCCN(CCNC(=O)c1cccc(=O)n1O)CCNC(=O)c1cccc(=O)n1O)c1cccc(=O)n1O.[Eu] [[Eu(H(14O4,2)-1,2HOPO)]^0]	0.528
O=C(NCCN(CCNC(=O)c1cccc(=O)n1O)CCOCCOCCOCCN(CCNC(=O)c1cccc(=O)n1O)CCNC(=O)c1cccc(=O)n1O)c1cccc(=O)n1O [Eu(H11-3)]	0.411
O=C(NCCN(CCNC(=O)c1cccc(=O)n1O)CCOCCOCCN(CCNC(=O)c1cccc(=O)n1O)CCNC(=O)c1cccc(=O)n1O)c1cccc(=O)n1O [Eu(H8-2)]	0.395

Okay, next one:
-- ask Please look up its η^Eu: O=C(NCCN(CCNC(=O)c1cccc(=O)n1O)CCOCCOCCOCCOCCOCCN(CCNC(=O)c1cccc(=O)n1O)CCNC(=O)c1cccc(=O)n1O)c1cccc(=O)n1O.[Eu] [[Eu(H(17O5,2)-1,2HOPO)]^0]
-- reply 0.522

FYI, the data here is from patent US10352938B2.
